Run description: probe aNog binding to arrayed compounds – biochemical, biotinylated probe, 635/667 nm fluorescence, primary screen (AID 1115);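 also: probe is biotinylated aNog protein used at 0.15 µg/mL for 1 h at 4 C; z-score combines 667 nm fluorescence of each spot with its signal to noise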
Setup conditions: small-molecule microarray, higher = more signal
Reported property: composite z-score

(Q) Input CN1C(=O)C2C(C1=O)C1C=C(c3ccc(CO)cc3)C2C(C2CC2)N1Cc1cc2c(cc1Br)OCO2 (centres undefined) , output reported composite z-score.
(A) 1.04

(Q) Tell me measured composite z-score for "CCCCCCC#C[Si](O[C@H](c1ccccc1)c1cn([C@H](C)c2ccccc2)nn1)(C(C)C)C(C)C" please.
(A) -0.139

(Q) Quickly give me recorded composite z-score for "COc1ccccc1CN1C(=O)c2ccccc2[C@](Cc2ccccc2I)(C(=O)NC2CC2)[C@@H]1c1ccc(CO)cc1"
(A) -0.354

(Q) Name the recorded composite z-score of the compound listed here: "C=C[C@H](OC)[C@@H](OC(=O)Nc1ccc(SC)cc1)c1ccc(OCCO)cc1"
(A) 0.375

(Q) Identify measured composite z-score corresponding to "COc1ccc([Si](C)(C)[C@H]2[C@H](CCO)O[C@@]3(C(=O)N(Cc4cccc(N5C(=O)c6cccc7cccc5c67)c4)c4ccccc43)[C@@H]2C)cc1"
(A) 0.741

(Q) Indicate its recorded composite z-score; the compound in question is "COCCOC(=O)N1C(=O)[C@@]2(c3cc(C#CC4(O)CCCCCC4)ccc31)[C@H](c1ccc(O)cc1)N1[C@H](c3ccccc3)[C@H](c3ccccc3)OC(=O)[C@H]1[C@@H]2C(=O)N1CCc2cc(OC)c(OC)cc2C1"
(A) -0.321

(Q) Indicate its recorded composite z-score; the compound in question is CN1C(=O)C2C=CC(C(O)c3ccccc3)N(NC(=O)OC(C)(C)C)C2C1=O (centres undefined)
(A) 0.401

(Q) Please report the measured composite z-score for CS(=O)(=O)CCOC(=O)C1=CC(c2ccc(CO)cc2)=CC(c2cccs2)N(Cc2cccc(OC(F)(F)F)c2)C=C1C(=O)OCCS(C)(=O)=O (centres undefined)
(A) -0.475

(Q) Consider the compound CCN(CC)c1ccc(N2CC=CC34O[C@@H]5C=CCOC(=O)[C@@H]5[C@H]3C(=O)N(CCCCCO)[C@@H]4C2=O)cc1 (some centres undefined) and give its recorded composite z-score.
(A) 0.277

(Q) Name the recorded composite z-score of the item "[N-]=[N+]=NCc1ccccc1C[C@]1(C(=O)N2CCOCC2)N=C(c2ccc(OCCCO)cc2)O[C@H]1c1ccccc1" in your answer.
(A) -0.376

(Q) Provide one value: measured composite z-score of "COc1ccc(C#Cc2ccc3c(c2)[C@]2(C(=O)N3)[C@H](c3ccc(OCCO)cc3)N3[C@H](c4ccccc4)[C@H](c4ccccc4)OC(=O)[C@H]3[C@@H]2C(=O)Nc2nc3ccccc3s2)cc1"
(A) 0.83

(Q) Please give measured composite z-score of the following entry: "C#C[C@H](O[Si](C#CCCCCCC)(C(C)C)C(C)C)c1ccccc1"
(A) 0.167

(Q) Give the reported value of composite z-score for this record: "COC(=O)[C@@]1(Cc2ccc(OC)cc2)[C@H]2c3cc(C(=O)N4CCCC4)n(CCN4CCOCC4)c3C[C@H]2CN1C(=O)c1ccccc1"
(A) 2.75

(Q) State, in one line, measured composite z-score of "O=C1O[C@H](c2ccccc2)[C@H](c2ccccc2)N2[C@H]1[C@@H](C(=O)N1CCCCCCC1)[C@]1(C(=O)Nc3ccc(C#CC4=CCCCC4)cc31)[C@H]2c1ccc(O)cc1"
(A) 3.53
